Values from ChEMBL document CHEMBL3232987

Tested on: Staphylococcus aureus
Protocol Summary: Antibacterial activity against gentamicin-resistant Staphylococcus aureus ATCC 33592 after 24 hrs by spectrophotometric analysis
Format: functional, organism-based
Measurement Context: Staphylococcus aureus, ATCC 33592, 24 h
Please provide measured MIC for the entries that follow.
Answer format: numeric, µg/mL implied, no suffix.

Problem: Need MIC, item CCn1cc(C(=O)O)c(=O)c2cc(F)c(N3CCN(C(c4ccc(OC)c(OC)c4OC)c4nnnn4C4CCCCC4)CC3)cc21 (centres undefined)
Solution: 0.8

Problem: Need MIC, item CC(C)(C)n1nnnc1C(c1ccncc1)N1CCN(c2cc3c(cc2F)c(=O)c(C(=O)O)cn3Cc2ccc(C(F)(F)F)cc2)CC1 (centres undefined)
Solution: 50

Problem: Need MIC, item CCn1cc(C(=O)O)c(=O)c2cc(F)c(N3CCN(C(c4ccc(C(C)C)cc4)c4nnnn4C(C)(C)C)CC3)cc21 (centres undefined)
Solution: 50

---

Tested on: Staphylococcus aureus
Protocol Summary: Antibacterial activity against gentamicin-resistant Staphylococcus aureus ATCC 33592 by NCCLS two-fold dilution method
Assay type: functional
Please provide measured MIC for the entries that follow.
Answer format: numeric, µg/mL implied, no suffix.

Problem: Need MIC, item COc1ccc(C(c2nnnn2C(C)(C)C)N2CCN(c3cc4c(cc3F)c(=O)c(C(=O)O)cn4Cc3ccc(C(F)(F)F)cc3)CC2)c(OC)c1OC (centres undefined)
Solution: 50

Problem: Need MIC, item CCn1cc(C(=O)O)c(=O)c2cc(F)c(N3CCN(C(c4ccc(C(C)C)cc4)c4nnnn4C4CCCCC4)CC3)cc21 (centres undefined)
Solution: 3.12

Problem: Need MIC, item CC(C)c1ccc(C(c2nnnn2C(C)(C)C)N2CCN(c3cc4c(cc3F)c(=O)c(C(=O)O)cn4Cc3ccc(C(F)(F)F)cc3)CC2)cc1 (centres undefined)
Solution: 3.12

---

Tested on: Staphylococcus aureus
Protocol Summary: Antibacterial activity against methicillin-resistant Staphylococcus aureus ATCC 700699 by NCCLS two-fold dilution method
Type: functional
Please provide measured MIC for the entries that follow.
Answer format: numeric, µg/mL implied, no suffix.

Problem: Need MIC, item CC(C)(C)n1nnnc1C(c1ccco1)N1CCN(c2cc3c(cc2F)c(=O)c(C(=O)O)cn3Cc2ccc(C(F)(F)F)cc2)CC1 (configuration not stated)
Solution: 50

Problem: Need MIC, item CCn1cc(C(=O)O)c(=O)c2cc(F)c(N3CCN(C(c4ccc(F)cc4)c4nnnn4C(C)(C)C)CC3)cc21 (configuration not stated)
Solution: 12.5

Problem: Need MIC, item CCn1cc(C(=O)O)c(=O)c2cc(F)c(N3CCN(C(c4cccc5ccccc45)c4nnnn4C4CCCCC4)CC3)cc21 (configuration not stated)
Solution: 25

Problem: Need MIC, item CCn1cc(C(=O)O)c(=O)c2cc(F)c(N3CCN(C(c4cccc5ccccc45)c4nnnn4C(C)(C)C)CC3)cc21 (configuration not stated)
Solution: 6.25

Problem: Need MIC, item CCn1cc(C(=O)O)c(=O)c2cc(F)c(N3CCN(C(c4ccccc4)c4nnnn4C(C)(C)C)CC3)cc21 (configuration not stated)
Solution: 25

---

Test system: Staphylococcus aureus
Protocol Summary: Antibacterial activity against gentamicin-resistant Staphylococcus aureus ATCC 33592 after 24 hrs by spectrophotometric analysis
Format: functional, organism-based
Measurement Context: Staphylococcus aureus, ATCC 33592, 24 h; read-out: IC50
Readout Type: IC50

Problem: Need IC50, item CCn1cc(C(=O)O)c(=O)c2cc(F)c(N3CCN(C(c4ccccc4)c4nnnn4C4CCCCC4)CC3)cc21 (stereo unspecified)
Solution: 0.75 µg/mL

Problem: Need IC50, item CCn1cc(C(=O)O)c(=O)c2cc(F)c(N3CCN(C(c4cccc5ccccc45)c4nnnn4C4CCCCC4)CC3)cc21 (stereo unspecified)
Solution: 1.6 µg/mL

Problem: Need IC50, item CCn1cc(C(=O)O)c(=O)c2cc(F)c(N3CCN(C(c4ccc(F)cc4)c4nnnn4C(C)(C)C)CC3)cc21 (stereo unspecified)
Solution: 0.2 µg/mL

Problem: Need IC50, item O=C(O)c1cn(Cc2ccc(C(F)(F)F)cc2)c2cc(N3CCN(C(c4cccc5ccccc45)c4nnnn4C4CCCCC4)CC3)c(F)cc2c1=O (stereo unspecified)
Solution: > 50 µg/mL

Problem: Need IC50, item CCn1cc(C(=O)O)c(=O)c2cc(F)c(N3CCN(C(c4ccc(C(C)C)cc4)c4nnnn4C(C)(C)C)CC3)cc21 (stereo unspecified)
Solution: > 50 µg/mL

Problem: Need IC50, item CCn1cc(C(=O)O)c(=O)c2cc(F)c(N3CCN(C(c4ccc(F)cc4)c4nnnn4C4CCCCC4)CC3)cc21 (stereo unspecified)
Solution: 50 µg/mL
